- assay_details: Confirmatory qHTS to identify inhibitors of SARS-CoV-2 cell entry (AID 1645844); note: nearly all actives have a fitted effect of over 45% in size
- condition_details: SARS-CoV-2 pseudotyped particle cell entry, luciferase; series mostly up to 57.2 µM
Inconclusive results are not listed. The source made the active and inactive calls. Calls come from the whole dose curve.
Answer with one of the outcomes given here: YES = active, NO = inactive

Prompt: Recorded call for COc1ccc(S(=O)(=O)N2CCc3cccc(-c4ccncc4)c32)cc1 ?
Completion: YES

Prompt: Which outcome did this test record for the compound CC/C(=C(/c1ccc(O)cc1)c1ccc(OCCNC)cc1)c1ccccc1 ?
Completion: YES

Prompt: Tell me the recorded outcome of this test for NC(=O)c1ccccc1Nc1ccnc(Nc2cccc(O)c2)n1 .
Completion: YES

Prompt: Outcome? CNCCCOc1cc(F)c(-c2c(Cl)nc3ncnn3c2N[C@@H](C)C(F)(F)F)c(F)c1
Completion: YES

Prompt: In this assay, the call recorded for [2H]C([2H])([2H])C(O)([C@@H](C)/C=C/[C@@H](C)[C@H]1CC[C@H]2/C(=C/C=C3C[C@@H](O)C[C@H](O)C3)CCC[C@]12C)C([2H])([2H])[2H] was what?
Completion: YES

Prompt: Hey, what did the test say about Cc1nnc(C[C@@H]2C=C(c3ccc(Cl)cc3)c3ccccc3-n3c(C)nnc32)o1 ?
Completion: NO

Prompt: Please state the recorded outcome for this compound: Cc1c(-c2ccc(-c3ccccc3F)cc2)nc2ccc(F)cc2c1C(=O)O
Completion: YES

Prompt: What is the recorded call for this compound in the test? CCCN1C[C@H](C)[C@@H](O)[C@](C)(O)[C@@H](CC)OC(=O)[C@H](C)[C@@H](O[C@H]2C[C@@](C)(OC)[C@@H](O)[C@H](C)O2)C(C)[C@@H](O[C@@H]2O[C@H](C)C[C@H](N(C)C)[C@H]2O)[C@](C)(O)C[C@H]1C (stereo partly drawn)
Completion: YES

----------
- Tested on: CP268
- assay_details: qHTS profiling for inhibitors of Plasmodium falciparum proliferation (AID 504749); note: nearly all actives have a fitted effect of over 60% in size
- condition_details: P. falciparum in erythrocytes, SYBR Green DNA, 72 h; series mostly up to 28.7 µM
Inconclusive results are not listed. Activity calls are given as the source filed them. Calls follow the shape of the dose curve; as a rule, active = well fitted inhibition curve with a large enough effect; inconclusive = small, poorly fitted or top-dose-only effect; inactive = flat fitted curve, though single readings scatter.
Use one of these outcomes when replying: TRUE = active, FALSE = inactive

Prompt: Recorded test outcome, item CC[C@@H]1[C@@H]2C[C@H]3[C@H]4N(C)c5ccccc5[C@@]45C[C@@H]([C@@H]2[C@@H]5O)N3[C@H]1O
Completion: FALSE

Prompt: Field: outcome | Entry: CO[C@@H](COC(N)=O)C1=C(N2CC2)C(=O)C(C)=C(N2CC2)C1=O
Completion: TRUE

Prompt: Status in this test for CNc1ccc(C(=O)CC(O)CCC(C)C2OC(=O)CC(O)CC(=O)CC(O)CC(O)CC(O)CC(O)CC3(O)CC(O)C(C(=O)OC)C(CC(O[C@@H]4OC(C)C(O)C(N)C4O)/C=C/C=C/C=C/C=C/C=C/C=C/C=C/C2C)O3)cc1 (some centres undefined) ?
Completion: FALSE

Prompt: Assay outcome for C[N+]1([O-])[C@@H]2CC[C@H]1CC(OC(=O)[C@@H](CO)c1ccccc1)C2 (some centres undefined) : what was it?
Completion: FALSE

Prompt: Recorded test outcome, item O=[As]O[As]=O (centres undefined)
Completion: TRUE

Prompt: Short answer needed: outcome of this test for NCC[C@H](O)C(=O)N[C@H]1C[C@@H](N)[C@@H](O[C@H]2O[C@@H](CN)[C@@H](O)[C@@H](O)[C@@H]2N)[C@@H](O[C@H]2O[C@@H](CO)[C@@H](O)[C@@H]2O)[C@@H]1O ?
Completion: FALSE

Prompt: Name the outcome recorded for CCCC[N+]1(C)C2CC(OC(=O)C(CO)c3ccccc3)CC1C1OC12 (centres undefined) in the assay.
Completion: FALSE

Prompt: Each compound tested received a call. Report the one for CN(C)[C@@H]1C(=O)C(C(N)=O)=C(O)[C@]2(O)C(=O)C3=C(O)c4c(O)ccc(Cl)c4[C@](C)(O)[C@H]3C[C@@H]12 .
Completion: FALSE

Prompt: So what was the verdict on C[C@@H]1O[C@H](O[C@@H]2C=C3CC[C@H]4[C@@H](CC[C@]5(C)[C@@H](c6ccc(=O)oc6)CC[C@]45O)[C@@]3(C)CC2)[C@@H](O)[C@H](O)[C@@H]1O in this test?
Completion: FALSE

Prompt: Record request — test call for CNC[C@H](O)c1ccc(O)cc1
Completion: FALSE

Prompt: Test call for this compound, please: C[N+]1(C)[C@@H]2CC[C@H]1CC(OC(=O)[C@@H](CO)c1ccccc1)C2 (some centres undefined)
Completion: FALSE

Prompt: Record request — test call for O=c1ccc2cc(O[C@H]3O[C@@H](CO)[C@@H](O)[C@@H](O)[C@@H]3O)c(O)cc2o1
Completion: FALSE

Prompt: I would be grateful if you could indicate the recorded call for CC(=O)OC1C[C@H](O[C@@H]2C(O)C[C@H](O[C@@H]3C(O)C[C@@H](OC4CC[C@]5(C)C(CCC6C5CC(O)[C@@]5(C)C(C7=CC(=O)OC7)CC[C@@]65O)C4)OC3C)OC2C)O[C@H](C)[C@H]1O[C@H]1OC(CO)C(O)C(O)C1O (some centres undefined) .
Completion: FALSE

Prompt: Write down the call the test reported for this compound. Item: CC1=C2[C@@H]3OC(=O)[C@@H](C)[C@@H]3CC[C@]2(C)C=CC1=O
Completion: FALSE
